- System: NCI-H522 lung
- experiment.description: NCI tumour cell line growth inhibition, 48 h; in the data active = GI50 below about 0.43 µM; inactive = the rest
Choose one outcome from this list and give only that: true (1) (active), false (0) (inactive)

Please let me know the test result on file for `COc1ccc2[nH]c(Cl)c(/C=C3/C(=O)Nc4ccccc43)c2c1` .
true (1)

Similarly, `Cc1c2cnccc2c(C)c2c1c1cc(O)ccc1n2C(C)C` ?
false (0)

Try this compound next: `O=C(COc1ccc(/C=C2\Oc3ccc4ccccc4c3C2=O)cc1)c1ccc([N+](=O)[O-])cc1`
false (0)

Next compound: `Cc1cc2c(cc1Cl)SC(N(c1ccccc1Cl)S(=O)(=O)c1ccc(Br)s1)=NS2(=O)=O`
false (0)

---

- Test system: LOX IMVI melanoma
- experiment.description: NCI tumour cell line growth inhibition, 48 h; in the data active means GI50 below about 0.43 µM; inactive means the rest
// allowed return values: true (active), false (inactive)

Status in this test for `CNC(=O)c1cc(Oc2ccc3nc(NC(=O)Nc4ccc(CN5CCOCC5)c(C(F)(F)F)c4)sc3c2)ccn1` ?
false

Note, next up: `Cc1cc2c(cc1Cl)SC(N(c1ccccc1Cl)S(=O)(=O)c1ccc(Br)s1)=NS2(=O)=O`
false

Cool, now `CN(C)c1ccc(/C=C/C(=O)c2ccc(Nc3nc(Nc4ccc(F)cc4)nc(Nc4ccc(F)cc4)n3)cc2)cc1`
false

Can you handle `C=CC(=O)N[C@@H]1CN(c2nc(Nc3cn(C)nc3OC)c3ncn(C)c3n2)C[C@H]1F` next?
false

Ok, now `CC1(C)OB(c2ccc(N(CCOS(C)(=O)=O)CCOS(C)(=O)=O)cc2)OC1(C)C`
false

Quick one: `Clc1ccc(-c2cc(-c3ccccc3)nc(N3CCN(CCCNc4ccnc5cc(Cl)ccc45)CC3)n2)cc1`
false

Same read-out for `CC(C)C[C@H](CC(=O)O)C(=O)N[C@@H](Cc1c[nH]c2ccccc12)C(=O)N[C@@H](C)c1ccccc1` ?
false

Then `CC[C@@]1(O)C(=O)OCc2c1cc1n(c2=O)Cc2cc3cc(Cl)ccc3nc2-1` ?
true

# iterate: `O=C([CH-]C(=O)c1ccccc1)c1ccccc1.[C-]#[O+].[C-]#[O+].[Ir]`
false

Entry `Cc1c2cnccc2c(C)c2c1c1cc(O)ccc1n2C(C)C` please
false

And `NC(N)=NN=c1c(=O)c2ccccc2c1=O` ?
false

---

- Tested on: RPMI-8226 leukemia
- experiment.description: NCI tumour cell line growth inhibition, 48 h
Give measured TGI for each item. Keep answers brief.

Query for RPMI-8226 leukemia: what TGI does the record show for CC1(CO)C(O)CCC2(C)C1CCC1CC3CC12CCC3(O)CO (configuration not stated) ?
> 100 µM

Cool, now `CCCCCCCCCCC(=O)CCCCCCC(=O)O`
32.3 µM

# repeat for Cc1ccc2nc(NC(=O)C(=O)C(C(=O)c3ccc4ccccc4c3)C3OC(=O)c4ccccc43)sc2c1 (configuration not stated)
> 100 µM

Queued: `CC(=O)NNc1nc(C)c(C(=O)NNC(=O)C(=O)Nc2ccc(Cl)c([N+](=O)[O-])c2)s1`
> 100 µM

Would you kindly repeat that for `C1=N[C@]23C(=N[C@H](N=C2NCc2ccco2)[C@]24N=CNC2=N[C@H]3N=C4NCc2ccco2)N1` ?
> 100 µM

Let us now turn to `Nc1nc(Cl)cc(NCC2(CO)CCCCC2)n1`
> 100 µM

Now try `O=C(O)c1cc(N=Nc2ccc([N+](=O)[O-])cc2)ccc1O` .
53.3 µM

Queued: `COc1ccccc1-n1cnc2c1NC(C)(C)N=C2C(N)=O`
> 100 µM

Please answer likewise for `Cc1ccc2nc(N)[nH]c(=O)c2c1Sc1ccncc1`
> 100 µM

Could you do the same for `Cc1sc2c(c1C)C(=O)c1cccn1-2` , please?
> 100 µM

Input `Cc1ccsc1/C=N/NC1=NCCN1`
> 100 µM

Next entry: `CC/C=C\C[C@H]1C/C=C2/C(=O)C=C[C@H]2C/C=C\CCCC(=O)O1`
4.82 µM

Entry to check: CN1C(=O)c2ccccc2C(O)(c2ccccc2)C1(O)c1ccccc1 (configuration not stated)
> 100 µM

Same question for `Cc1cc(OCc2nc(N)nc(N)c2-c2ccc(Cl)c(Cl)c2)ccc1[N+](=O)[O-]` please.
> 78.7 µM

Check `COc1ccccc1N1CCN(CCCCNC(=O)c2ccc([N+](=O)[O-])o2)CC1` too.
> 68.4 µM

Cool, now `Cc1cc(F)c(C(=O)Nc2cccc(-c3nncn3C(C)C)n2)cc1-n1cnc(C2CC2)c1`
35.3 µM

Could you do the same for Nc1nc(=O)n(C2CC(O)C(CO)O2)cc1F (configuration not stated) , please?
> 100 µM
